Data provenance is patent US20070249670A1.

The following compounds are shown together with reported pIC50 values.
target: human liver glycogen phosphorylase a (HLGPa) (Homo sapiens)
Construct: creating a full-length cDNA fused at the 5′ end to codons for methionine-glycine-alanine-histidine; 6xHis tag (leader Met-Gly-Ala-His6-Gly-Gly) (N); made in house; host or cells: E. coli (bacterial expression plasmid pTXK1007LTev)
Sequence (P06737 2-847 limits assumed): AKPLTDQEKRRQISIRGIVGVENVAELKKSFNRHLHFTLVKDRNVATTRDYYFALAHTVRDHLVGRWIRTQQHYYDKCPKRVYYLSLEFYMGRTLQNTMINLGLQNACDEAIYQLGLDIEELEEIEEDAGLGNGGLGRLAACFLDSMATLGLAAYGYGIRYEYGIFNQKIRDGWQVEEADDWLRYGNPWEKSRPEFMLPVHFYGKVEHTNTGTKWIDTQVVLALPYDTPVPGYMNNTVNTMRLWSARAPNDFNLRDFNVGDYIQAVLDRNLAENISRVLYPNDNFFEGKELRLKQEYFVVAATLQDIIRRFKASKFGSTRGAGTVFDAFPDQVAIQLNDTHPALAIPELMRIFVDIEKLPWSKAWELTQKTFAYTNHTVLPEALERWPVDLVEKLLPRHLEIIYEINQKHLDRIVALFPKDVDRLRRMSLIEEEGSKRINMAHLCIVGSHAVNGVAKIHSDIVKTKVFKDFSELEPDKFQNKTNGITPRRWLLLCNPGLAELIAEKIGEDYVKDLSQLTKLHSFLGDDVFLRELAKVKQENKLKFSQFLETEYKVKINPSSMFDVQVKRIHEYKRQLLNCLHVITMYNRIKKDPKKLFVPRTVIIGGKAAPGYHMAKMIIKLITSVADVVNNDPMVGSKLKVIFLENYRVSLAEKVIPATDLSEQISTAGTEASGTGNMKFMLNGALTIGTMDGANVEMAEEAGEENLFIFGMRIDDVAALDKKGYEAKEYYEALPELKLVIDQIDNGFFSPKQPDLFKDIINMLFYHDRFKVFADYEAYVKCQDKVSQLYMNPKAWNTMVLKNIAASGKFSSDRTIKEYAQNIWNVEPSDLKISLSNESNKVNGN
method notes: Human liver glycogen phosphorylase a enzymatic activity assay (coupled, fluorescent resorufin readout, with and without 10 mM glucose)
Format: biochemical
test context: human liver glycogen phosphorylase a enzymatic activity assay
Please report pIC50 as the negative decimal logarithm of the molar concentration, giving only the number.

Ask: Given the entry CCCCc1cc(C)c(NC(=O)Nc2cc(F)ccc2C(=O)N[C@H](C(=O)O)C2CCCCC2)c(C)c1 [Example 480] , report its measured pIC50.
Result: 7.70

Ask: // repeat for C=CCc1cc(C)c(NC(=O)Nc2cc(F)ccc2C(=O)N[C@H](C(=O)O)C2CCCCC2)c(C)c1 [Example 476] and report
Result: 7.52

Ask: // repeat for COC(=O)CCNC(=O)c1cc2ccccc2cc1NC(=O)Nc1c(C)cc(C)cc1C [Example 493] and report
Result: 5.01

Ask: // repeat for O=C(Nc1cc2ccccc2cc1C(=O)N[C@H](C(=O)O)C1CCCCC1)Nc1c(Cl)cccc1C(F)(F)F [Example 160] and report
Result: 7.17

====

target: human liver glycogen phosphorylase a (HLGPa) (Homo sapiens, UniProt P06737)
Construct: creating a full-length cDNA fused at the 5′ end to codons for methionine-glycine-alanine-histidine; 6xHis tag (leader Met-Gly-Ala-His6-Gly-Gly) (N); made in house; host or cells: E. coli (bacterial expression plasmid pTXK1007LTev)
method notes: Human liver glycogen phosphorylase a enzymatic activity assay (coupled, fluorescent resorufin readout, with and without 10 mM glucose)
Assay type: biochemical
test context: human liver glycogen phosphorylase a enzymatic activity assay
Counter-ions that a name gives are not always drawn.
The following molecules are shown together with reported IC50 values.
Put down the number, then write its unit next to it.

Some molecules with known IC50 results, for comparison:
>>> recorded_value("O=C(Nc1sc(Cc2ccccc2)cc1C(=O)N[C@H](C(=O)O)C1CCCCC1)Nc1c(Cl)cccc1Cl")
"6.7 µM"
>>> recorded_value("NC(=O)CC[C@H](NC(=O)c1cc2ccccc2cc1NC(=O)Nc1ccccc1Cl)C(=O)O")
"41 µM"
>>> recorded_value("O=C(Nc1ccccc1Cl)Nc1cc2ccccc2cc1C(=O)N[C@@H](Cc1c[nH]c2ccccc12)C(=O)O [Example 58, trifluoroacetate]")
"4.7 µM"

Ask: Given the entry O=C(Nc1sc2c(c1C(=O)N[C@H](C(=O)O)C1CCCCC1)CCCC2)Nc1c(Cl)cccc1Cl , report its measured IC50.
Result: 5.5 µM

Ask: // repeat for Cc1ccccc1NC(=O)Nc1sc2ccccc2c1C(=O)N[C@H](C(=O)O)C1CCCCC1 and report
Result: 8.71 µM
